Kindly supply the reported solubility at 5 min values for the records listed here.
assay: Kinetic solubility determination; type: physicochemical; conditions: PBS with 2% DMSO, aqueous buffer, kinetic from dmso stock, PBS buffer and 2% DMSO; read-out: Max. solubility
Give the quantity in µM, number only.

Recorded solubility at 5 min for `COc1ccc(/C(Cc2ccc(N)cc2)=N/O)c(OC)c1` , please?
119

And for `ON=C(Cc1ccc(Cl)cc1)c1ccc(O)cc1O` ?
114

====

system: blood-stage P. falciparum 3D7; details: Plasmodium falciparum
Kindly supply the reported IC50 values for the records listed here.

Recorded IC50 for `OCc1cn(Cc2ccc(Cl)c(Cl)c2)c2ccccc12` , please?
8 to 21 µM

And for `ON=C(Cc1ccc(Cl)cc1)c1ccc(O)cc1O` ?
44 to 74 µM

And for `Cc1nc(N)sc1-c1csc(Nc2ccc(C(F)(F)F)cc2)n1` ?
0.6 to 1.7 µM
